- System: E. coli Keio ∆sbmA (BW25113 ΔsbmA)
- protocol: Antibiotic susceptibility (growth) assay, E. coli Keio ΔsbmA
- Format: cell-based, Escherichia coli
- test_parameters: Minimal medium; 30 μM peptide; average of three biological replicates
No end group written: not given here. *: point of attachment. β‑D‑cellobiosyl = OC[C@H]1O[C@@H](O[C@H]2[C@H](O)[C@@H](O)[C@H](*)O[C@@H]2CO)[C@H](O)[C@@H](O)[C@@H]1O; β‑D‑lactosyl = OC[C@H]1O[C@@H](O[C@H]2[C@H](O)[C@@H](O)[C@H](*)O[C@@H]2CO)[C@H](O)[C@@H](O)[C@H]1O; β‑D‑maltosyl = OC[C@H]1O[C@H](O[C@H]2[C@H](O)[C@@H](O)[C@H](*)O[C@@H]2CO)[C@H](O)[C@@H](O)[C@@H]1O; α‑D‑GlcNAc = CC(=O)N[C@@H]1[C@@H](O)[C@H](O)[C@@H](CO)O[C@@H]1*; αGalNAc = CC(=O)N[C@@H]1[C@@H](O)[C@@H](O)[C@@H](CO)O[C@@H]1*; βGlc = OC[C@H]1O[C@@H](*)[C@H](O)[C@@H](O)[C@@H]1O; βGal = OC[C@H]1O[C@@H](*)[C@H](O)[C@@H](O)[C@H]1O
recorded_endpoint: Average of normalized growth (%)
Answers are plain numbers, in %.

Record excerpt, results attached:
substance | measured_target | measurement_units | Average of normalized growth
Dro5: drosocin derivative bearing β-D-Gal on Thr11 (GKPRPYSPRPT(βGal)SHPRPIRV; UniProt P36193 22-40, looked up) | E. coli Keio ∆sbmA (BW25113 ΔsbmA) | % | 107
Dro4: drosocin derivative bearing α-D-GlcNAc on Thr11 (GKPRPYSPRPT(α‑D‑GlcNAc)SHPRPIRV; UniProt P36193 22-40, looked up) | E. coli Keio ∆sbmA (BW25113 ΔsbmA) | % | 103
Dro7: drosocin derivative bearing β-D-Lactosyl on Thr11 (GKPRPYSPRPT(β‑D‑lactosyl)SHPRPIRV; UniProt P36193 22-40, looked up) | E. coli Keio ∆sbmA (BW25113 ΔsbmA) | % | 109
Dro8: drosocin derivative bearing β-D-Cellobiosyl on Thr11 (GKPRPYSPRPT(β‑D‑cellobiosyl)SHPRPIRV; UniProt P36193 22-40, looked up) | E. coli Keio ∆sbmA (BW25113 ΔsbmA) | % | 112
Dro6: drosocin derivative bearing β-D-Glc on Thr11 (GKPRPYSPRPT(βGlc)SHPRPIRV; UniProt P36193 22-40, looked up) | E. coli Keio ∆sbmA (BW25113 ΔsbmA) | % | 106
Dro2: naturally occurring drosocin carrying disaccharide β-D-Gal(1→3)-α-D-GalNAc attached to Thr11 (GKPRPYSPRPTSHPRPIRV; not fully specified (residue 11); UniProt P36193 22-40, looked up) | E. coli Keio ∆sbmA (BW25113 ΔsbmA) | % | 101
Dro3: drosocin derivative bearing β-D-Maltosyl on Thr11 (GKPRPYSPRPT(β‑D‑maltosyl)SHPRPIRV; UniProt P36193 22-40, looked up) | E. coli Keio ∆sbmA (BW25113 ΔsbmA) | % | 105
Dro1: naturally occurring drosocin carrying monosaccharide α-D-GalNAc attached to Thr11 (GKPRPYSPRPT(αGalNAc)SHPRPIRV; UniProt P36193 22-40, looked up) | E. coli Keio ∆sbmA (BW25113 ΔsbmA) | % | 106

Shifting focus to the substance that follows.
Answer with reported Average of normalized growth of Dro: unmodified drosocin, 19 amino acid proline-rich antimicrobial peptide lacking O-glycosylation (GKPRPYSPRPTSHPRPIRV; Drosocin; UniProt P36193 22-40, looked up)
102
